Some compounds, each annotated with its measured Clinical signs (observation code), Day 2, 24 hours.
System: male CD-1 mice
Test: 5 day chronic oral dosing toxicity study in mice (clinical signs)
Format: in vivo
Set-up: key: 0: Appeared Normal; 1: Activity (inc./dec.); 2: Sedation/Lethargy; 3: Piloerection; 4: Stereotypy; 5: Soft Stool; 6: Chromodacryorrhea; 7: Epistaxis; 8: Cyanosis; 9: Flaccidity; 10: Respiration; 11: Hunched Posture; 12: Enophthalmia; 13: Exophthalmia; 14: Palpabral Ptosis; 15: Loss of Righting; 16: Chromaturia; 17: Salivation; 18: Lacrimation; 19: Miosis; 20: Mydriasis; 21: Rigidity; 22: Ataxia; 23: Tremors; 24: Convulsions; 25: Catalepsy; 26: Lateral Recumbency; 27: Death
Conditions: 40 mg/kg/day PO, male CD-1 mice, one line per animal
READOUT_NAME: Clinical signs (observation code), Day 2, 24 hours

{"COMPOUND": "COc1cccc(-c2ccc(/C(=C/CN(C)CC(=O)O)c3cscc3C)cc2)c1 [Compound G(xii)]", "SYSTEM": "male CD-1 mice", "RESULT_NUMBER": 0}
{"COMPOUND": "CN(C/C=C(/c1ccc(-c2cccc(OC(F)(F)F)c2)cc1)c1ccsc1)CC(=O)O [Compound G(vii)]", "SYSTEM": "male CD-1 mice", "RESULT_NUMBER": 0}
{"COMPOUND": "CN(C/C=C(/c1ccc(-c2ccsc2)cc1)c1ccsc1)CC(=O)O [Compound G(ii)]", "SYSTEM": "male CD-1 mice", "RESULT_NUMBER": 0}
{"COMPOUND": "Cc1cscc1/C(=C\\CN(C)CC(=O)O)c1ccc(-c2ccsc2)cc1 [Compound G(x)]", "SYSTEM": "male CD-1 mice", "RESULT_NUMBER": 0}
{"COMPOUND": "COc1cccc(-c2ccc(/C(=C/CN(C)CC(=O)O)c3ccsc3)cc2)c1 [Compound G(v)]", "SYSTEM": "male CD-1 mice", "RESULT_NUMBER": 0}
{"COMPOUND": "Cc1cscc1/C(=C\\CN(C)CC(=O)O)c1ccc(-c2cccc(C(F)(F)F)c2)cc1 [Compound G(xi)]", "SYSTEM": "male CD-1 mice", "RESULT_NUMBER": 0}
{"COMPOUND": "CN(C/C=C(/c1ccc(-c2ccco2)cc1)c1ccsc1)CC(=O)O [Compound G(iv)]", "SYSTEM": "male CD-1 mice", "RESULT_NUMBER": 0}
{"COMPOUND": "CN(C/C=C(\\c1ccccc1)c1ccc(-c2ccsc2)cc1)CC(=O)O [Compound I, reference compound]", "SYSTEM": "male CD-1 mice", "RESULT_NUMBER": 0}
{"COMPOUND": "CN(C/C=C(/c1ccc(-c2ccsc2)cc1)c1cccs1)CC(=O)O [Compound G(ix)]", "SYSTEM": "male CD-1 mice", "RESULT_NUMBER": 0}
{"COMPOUND": "Cc1cccc(-c2ccc(/C(=C/CN(C)CC(=O)O)c3ccsc3)cc2)c1 [Compound G(vi)]", "SYSTEM": "male CD-1 mice", "RESULT_NUMBER": 0}
{"COMPOUND": "Cc1ccccc1/C(=C\\CN(C)CC(=O)O)c1ccc(-c2ccsc2)cc1 [Compound G(xiv)]", "SYSTEM": "male CD-1 mice", "RESULT_NUMBER": 0}
{"COMPOUND": "Cc1cccc(-c2ccc(/C(=C/CN(C)CC(=O)O)c3sccc3C)cc2)c1 [Compound G(xiii)]", "SYSTEM": "male CD-1 mice", "RESULT_NUMBER": 0}
{"COMPOUND": "CN(C/C=C(/c1ccc(-c2cccs2)cc1)c1ccsc1)CC(=O)O [Compound G(iii)]", "SYSTEM": "male CD-1 mice", "RESULT_NUMBER": 0}
{"COMPOUND": "CN(C/C=C(/c1ccc(-c2cccc(C#N)c2)cc1)c1ccsc1)CC(=O)O [Compound G(viii)]", "SYSTEM": "male CD-1 mice", "RESULT_NUMBER": 0}
{"COMPOUND": "CC(C)c1ccc(-c2ccc(/C(=C/CN(C)CC(=O)O)c3ccsc3)cc2)cc1 [Compound G(i)]", "SYSTEM": "male CD-1 mice", "RESULT_NUMBER": 0}
